mass density listing for selected compounds.
# test.parameters: 303.15 K; 15000 kPa; Liquid
# output: bare number, implied unit kg/m3

Look over these answered cases.
# compound, mass density (kg/m3)
records = [
    ("CCCCCCCCCCn1cc[n+](C)c1.O=S(=O)([N-]S(=O)(=O)C(F)(F)F)C(F)(F)F", 1285.8),
    ("CCOS(=O)(=O)[O-].CCn1cc[n+](C)c1 [1-ethyl-3-methylimidazolium ethyl sulfate]", 1247),
    ("CCn1cc[n+](CC)c1.O=S(=O)([N-]S(=O)(=O)C(F)(F)F)C(F)(F)F [1,3-diethylimidazolium bis[(trifluoromethyl)sulfonyl]imide]", 1469.8),
]

Attention now shifts to the item below.
// field: mass density; key: CCn1cc[n+](C)c1.COS(=O)(=O)[O-] [1-ethyl-3-methylimidazolium methylsulfate] ; value = 1289.5
